Cited source for all entries: the supplement of paper PMC6607015

Tested on: A431
Assay: LBPA endosome anti-LBPA integrated intensity (sum per cell), Z-score; higher = more LBPA staining
Details: compound concentration in added solution (µM; 5 µl added to 20 µl cells): 10; 18 h
Where a name gives a salt, the structure may show the parent alone.
Decision: LBPA endosome anti-LBPA integrated intensity (z-score) >= -0.3 yields label 1, all other cases yield label 0.

LBPA endosome anti-LBPA integrated intensity (z-score) >= -0.3 for C[C@]12C[C@H]3S[C@H]3C[C@@H]1CC[C@@H]1[C@@H]2CC[C@]2(C)[C@@H](O)CC[C@@H]12 [Epitiostanol] ?
label 0

LBPA endosome anti-LBPA integrated intensity (z-score) >= -0.3 for CCC1=C[C@H]2CN3CCc4c([nH]c5ccccc45)[C@](C(=O)OC)(C2)[C@H]13 ?
label 1

LBPA endosome anti-LBPA integrated intensity (z-score) >= -0.3 for C=C(C)[C@@H]1[C@H]2OC(=O)[C@@H]1[C@]1(O)C[C@H]3O[C@]34C(=O)O[C@H]2[C@]14C ?
label 0

LBPA endosome anti-LBPA integrated intensity (z-score) >= -0.3 for CN1[C@@H]2CC[C@H]1C[C@@H](OC1c3ccccc3CCc3ccccc31)C2 [Deptropine citrate] ?
label 1

LBPA endosome anti-LBPA integrated intensity (z-score) >= -0.3 for NCC1(CC(=O)O)CCCCC1 ?
label 0

LBPA endosome anti-LBPA integrated intensity (z-score) >= -0.3 for CCC1(c2ccc(N)cc2)CCC(=O)NC1=O (configuration not stated) [Glutethimide, para-amino] ?
label 0

LBPA endosome anti-LBPA integrated intensity (z-score) >= -0.3 for CC(=O)[C@H]1CC[C@H]2[C@@H]3CC[C@H]4C[C@H](O)CC[C@]4(C)[C@H]3C(=O)C[C@]12C ?
label 1

LBPA endosome anti-LBPA integrated intensity (z-score) >= -0.3 for CC1OC(OC2/C=C/C=C/C=C/C=C/CC/C=C/C=C/[C@H](C)[C@@H](O)[C@@H](C)[C@H](C)OC(=O)CC(O)CC(O)CC(O)CCC(O)C(O)C[C@]3(O)CC(O)C(C(=O)O)C(C2)O3)C(O)C(N)C1O (some centres not stated) ?
label 1

LBPA endosome anti-LBPA integrated intensity (z-score) >= -0.3 for COc1ccc2c(c1)[C@]13CCCC[C@@H]1[C@H](C2)N(C)CC3 [Dextromethorphan hydrobromide monohydrate] ?
label 0

LBPA endosome anti-LBPA integrated intensity (z-score) >= -0.3 for CC[N+]1(C)CCCC(OC(=O)C(O)(c2ccccc2)c2ccccc2)C1 (configuration not stated) [Pipenzolate bromide] ?
label 1

LBPA endosome anti-LBPA integrated intensity (z-score) >= -0.3 for CC(C)(N)Cc1ccccc1 [Phentermine hydrochloride] ?
label 0

LBPA endosome anti-LBPA integrated intensity (z-score) >= -0.3 for CCN[C@@H](C)Cc1cccc(C(F)(F)F)c1 [Dexfenfluramine hydrochloride] ?
label 1

LBPA endosome anti-LBPA integrated intensity (z-score) >= -0.3 for O=C(CCCN1CCC2(CC1)C(=O)NCN2c1ccccc1)c1ccc(F)cc1 ?
label 1

LBPA endosome anti-LBPA integrated intensity (z-score) >= -0.3 for CNCC(O)c1ccc(O)cc1 (racemic) [(+,-)-Synephrine] ?
label 1

LBPA endosome anti-LBPA integrated intensity (z-score) >= -0.3 for CN1[C@@H]2CC[C@H]1C[C@@H](OC(=O)[C@H](CO)c1ccccc1)C2 ?
label 0

LBPA endosome anti-LBPA integrated intensity (z-score) >= -0.3 for CC(C)[N+](C)(CCC(C(N)=O)(c1ccccc1)c1ccccc1)C(C)C [Isopropamide iodide] ?
label 1

###

System: A431
Assay: whole-cell filipin (free cholesterol) integrated intensity, Z-score; higher = more cholesterol staining
Conditions: compound concentration in added solution (µM; 5 µl added to 20 µl cells): 10; 18 h
Counter-ions that a name gives are not always drawn.
readout-kind: whole-cell filipin (z-score)
# output: bare number, no unit

State, in one line, measured whole-cell filipin (z-score) of CC(O)(CS(=O)(=O)c1ccc(F)cc1)C(=O)Nc1ccc(C#N)c(C(F)(F)F)c1 (stereo not given) [Bicalutamide]
-0.0253

State, in one line, measured whole-cell filipin (z-score) of CC(CCc1ccccc1)NC(C)C(O)c1ccc(O)cc1 (stereo not given) [Nylidrin]
0.218

State, in one line, measured whole-cell filipin (z-score) of C#C[C@]1(O)CC[C@H]2[C@@H]3CCC4=CC(=O)CC[C@]4(C)[C@H]3CC[C@@]21C [Ethisterone]
-0.635

State, in one line, measured whole-cell filipin (z-score) of CCOC(=O)c1cncn1[C@H](C)c1ccccc1 [Etomidate]
-0.618

State, in one line, measured whole-cell filipin (z-score) of O=c1[nH]c2ccccc2n1CCCN1CCC(n2c(=O)[nH]c3cc(Cl)ccc32)CC1 [Domperidone]
2.16

State, in one line, measured whole-cell filipin (z-score) of CNCC(O)c1ccc(O)cc1 (racemic) [(+,-)-Synephrine]
0.673

State, in one line, measured whole-cell filipin (z-score) of N[C@@H]1C[C@H]1c1ccccc1 [Tranylcypromine hydrochloride]
-0.309

State, in one line, measured whole-cell filipin (z-score) of CCC(=O)O[C@@](Cc1ccccc1)(c1ccccc1)[C@@H](C)CN(C)C [Levopropoxyphene napsylate]
0.489

State, in one line, measured whole-cell filipin (z-score) of O=C(CCCN1CCC(n2c(=O)[nH]c3ccccc32)CC1)c1ccc(F)cc1 [Benperidol]
2.2

State, in one line, measured whole-cell filipin (z-score) of C[C@@]12N[C@@H](Cc3ccccc31)c1ccccc12 [(-)-MK 801 hydrogen maleate]
-0.428

State, in one line, measured whole-cell filipin (z-score) of NC(=O)CN1CCCC1=O [Piracetam]
-0.653

State, in one line, measured whole-cell filipin (z-score) of CO[C@]12C[C@@H](COC(=O)c3cncc(Br)c3)CN(C)[C@@H]1Cc1cn(C)c3cccc2c13 [Nicergoline]
3.37

State, in one line, measured whole-cell filipin (z-score) of CN1C[C@H](CNC(=O)OCc2ccccc2)C[C@@H]2c3cccc4c3c(cn4C)C[C@H]21 [Metergoline]
1.11

State, in one line, measured whole-cell filipin (z-score) of C[N+]12CCC(CC1)C(OC(=O)C(O)(c1ccccc1)c1ccccc1)C2 (stereo not given) [Clidinium bromide]
-0.441

State, in one line, measured whole-cell filipin (z-score) of CC(=O)O[C@H]1C[C@@H]2CC[C@@H]3[C@H](CC[C@@]4(C)[C@H]3C[C@H]([N+]3(C)CCCCC3)[C@@H]4OC(C)=O)[C@@]2(C)C[C@@H]1[N+]1(C)CCCCC1 [Pancuronium bromide]
0.0171

State, in one line, measured whole-cell filipin (z-score) of CCCC(C)(COC(N)=O)COC(=O)NC(C)C (stereo not given) [Carisoprodol]
-0.863

State, in one line, measured whole-cell filipin (z-score) of NCC(O)c1ccc(O)cc1 (racemic) [(+,-)-Octopamine hydrochloride]
-0.464

State, in one line, measured whole-cell filipin (z-score) of c1ccc2c(c1)OCC(C1=NCCN1)O2 (stereo not given) [Idazoxan hydrochloride]
-0.115

State, in one line, measured whole-cell filipin (z-score) of COc1ccc2c(c1)[C@]13CCCC[C@@H]1[C@H](C2)N(C)CC3 [Dextromethorphan hydrobromide monohydrate]
-0.0383

State, in one line, measured whole-cell filipin (z-score) of CN1CCC2(C)c3cc(O)ccc3N(C)C12 (single isomer, unassigned; (-)) [(-)-Eseroline fumarate salt]
0.444

State, in one line, measured whole-cell filipin (z-score) of O=C(NCNC(=O)NC1C(=O)NC(=O)N1CO)NC1C(=O)NC(=O)N1CO (stereo not given) [Imidurea]
-0.35

State, in one line, measured whole-cell filipin (z-score) of C[C@]12CCC(=O)C=C1CC[C@@H]1[C@@H]2C(=O)C[C@]2(C)C(=O)CC[C@@H]12 [Adrenosterone]
1.61

State, in one line, measured whole-cell filipin (z-score) of NCCc1c[nH]c2ccc(O)cc12 [Serotonin hydrochloride]
-1.04

State, in one line, measured whole-cell filipin (z-score) of C[C@]12CC[C@@H](O)C[C@H]1CC[C@@H]1[C@@H]2CC[C@]2(C)C(=O)CC[C@@H]12 [3-alpha-Hydroxy-5-beta-androstan-17-one]
0.209

State, in one line, measured whole-cell filipin (z-score) of C[C@]12Cc3c[nH]nc3C[C@@H]1CC[C@@H]1[C@@H]2CC[C@@]2(C)[C@H]1CC[C@]2(C)O [Stanozolol]
0.353

###

Test system: HeLa MZ
Test: filipin (cholesterol) integrated intensity within LBPA endosomes, Z-score; higher = more cholesterol in LBPA endosomes
Conditions: compound concentration in added solution (µM; 5 µl added to 20 µl cells): 10; 18 h
Structures can show the parent of a compound that is named as a salt.
readout-kind: filipin (z-score)

With HeLa MZ as the test system, provide measured filipin (z-score) for this molecule: CC(C)N(CCC(C(N)=O)(c1ccccc1)c1ccccn1)C(C)C (stereo not given) [Disopyramide]
-0.294

With HeLa MZ as the test system, provide measured filipin (z-score) for this molecule: O=P1(NCCCl)OCCCN1CCCl (stereo not given) [Ifosfamide]
-0.611

With HeLa MZ as the test system, provide measured filipin (z-score) for this molecule: CC(Cc1ccc(O)cc1)NCC(O)c1cc(O)cc(O)c1 (stereo not given) [Fenoterol hydrobromide]
-0.584

With HeLa MZ as the test system, provide measured filipin (z-score) for this molecule: NCC(CC(=O)O)c1ccc(Cl)cc1 (racemic) [Baclofen (R,S)]
-0.613

With HeLa MZ as the test system, provide measured filipin (z-score) for this molecule: CCC1(CC)C(=O)C=CNC1=O [Pyrithyldione]
-0.593
